# methodDescription: qHTS assay to identify small molecule agonists of the sonic hedgehog signaling (Shh) pathway - cell viability counter screen (AID 1259366); note: nearly all actives have a fitted effect of over 50% in size
# appliedConditions: NIH/3T3 Gli1-Luc viability, CellTiter-Fluor, 24 h; series mostly up to 92.4 µM
Results filed as inconclusive are left out. Calls of active or inactive are those of the source. Calls come from the whole dose curve; as a rule, active = well fitted cell-killing curve with a large enough effect in the repeat runs; inconclusive = weak or mixed curves, or effect the other way; inactive = flat fitted curve, though single readings scatter.
Outcome codes: label 1 = active, label 0 = inactive

| molecule | groupLabel |
| --- | --- |
| CCCCCCC/C=C/C=O | label 0 |
| C/C=C1\[C@H]2C=C(C)C[C@]1(N)c1ccc(=O)[nH]c1C2 | label 0 |
| Cc1ccc2ccccc2c1[N+](=O)[O-] | label 0 |
| NCCOCCOCCN | label 0 |
| O=Cc1ccc(Cl)c([N+](=O)[O-])c1 | label 1 |
| O=P(c1ccccc1)(c1ccccc1)c1ccccc1 | label 0 |
| CC(C)(C)NCC(O)COc1ccc(NC(=O)NC2CCCCC2)cc1 (centres undefined) | label 0 |
| O=C(O)c1ccc2cc(O)ccc2c1 | label 0 |
| CCCCCCCCC(=O)OCC(C)OC(=O)CCCCCCCC (centres undefined) | label 0 |
| O=C(c1ccco1)N1CCNCC1 | label 0 |
| CCCC(=O)OCc1ccccc1 | label 0 |
| CCCCCCCCCC(C)C=O (centres undefined) | label 0 |
| Cc1ccc(Cl)c(OCC(O)CNC(C)(C)C)c1 (centres undefined) | label 0 |
| CCC(=O)O[C@@H]1C[C@H]2CC[C@]1(C)C2(C)C | label 0 |

Reference source: PubChem BioAssay (Tox21)
